Assay: A CellTox Green Cytotoxicity Assay to monitor cytotoxicity in HepG2 cells - 40 hour (AID 1224879); further: nearly all actives have a fitted effect of over 40% in size
Conditions: CellTox Green fluorescence; series mostly up to 76.8 µM
Results filed as inconclusive are left out. Activity calls are given as the source filed them. The call rests on the fitted dose curve; in most records, active means well fitted activation curve with a large enough effect in the repeat runs; inconclusive means weak or mixed curves; inactive means flat fitted curve, though single readings scatter.
Possible outcomes: active, inactive

| Compound | Class Assignment |
| --- | --- |
| CCCCN(CCCC)C(=S)[S-].CCCCN(CCCC)C(=S)[S-].[Zn+2] | active |
| CC(=O)Nc1ccc2c(c1)Cc1ccccc1-2 | inactive |
| CC(=[OH+])/C=C(/C)[O-].CC(=[OH+])/C=C(\C)[O-].CC(=[OH+])/C=C(\C)[O-].[Fe] | inactive |
| C[C@]12Cc3nonc3C[C@@H]1CC[C@@H]1[C@@H]2CC[C@@]2(C)[C@H]1CC[C@]2(C)O | inactive |
| Nc1ccc(Cc2ccc(N)c(Cl)c2)cc1Cl | inactive |
| O=C/C(Cl)=C(/Cl)C(=O)O | active |
| C[C@H]1CC[C@@H]2[C@@H](C)[C@H]3[C@H](C[C@H]4[C@@H]5CC=C6CC(O[C@@H]7O[C@H](CO)[C@H](O)[C@H](O[C@@H]8O[C@H](CO)[C@@H](O)[C@H](O)[C@H]8O)[C@H]7O[C@H]7O[C@@H](C)[C@H](O)[C@@H](O)[C@H]7O)CC[C@]6(C)[C@H]5CC[C@]34C)N2C1 (stereo partly drawn) | active |
| Oc1cccc(-c2ccccc2)c1 | inactive |
